# assay-explanation: qHTS of pediatric cancer cell lines to identify multiple opportunities for drug repurposing: Primary screen for SK-N-MC cells (AID 1347093)
# measurement-parameters: SK-N-MC viability, CellTiter-Glo luminescence, 48 h; series mostly up to 46 µM
Inconclusive results are not listed. Calls of active or inactive are those of the source. Calls come from the whole dose curve; as a rule, active = well fitted cell-killing curve with a large enough effect; inconclusive = small, poorly fitted or top-dose-only effect; inactive = no such curve, though single readings can be large or run the other way.
Give your call using only these classes: active, inactive

// known answers, use as guide
>  <compound>
Cc1ccc(S(=O)(=O)NC(=O)NN2CC3CCCC3C2)cc1 (stereo not given)

>  <label-value>
inactive

$$$$
>  <compound>
O=C1c2c(O)cc(O)cc2OC(c2ccc(O)c(O)c2)C1O (stereo not given)

>  <label-value>
active

$$$$
>  <compound>
CC(C)[N+]1(C)[C@@H]2CC[C@H]1CC(OC(=O)C(CO)c1ccccc1)C2 (stereo not given in full)

>  <label-value>
active

$$$$
>  <compound>
COc1ccccc1N1CCN(CCN(C(=O)C2CCCCC2)c2ccccn2)CC1

>  <label-value>
inactive

$$$$
>  <compound>
C[C@]12CCC(=O)C=C1CC[C@@H]1[C@H]2[C@@H](O)C[C@@]2(C)[C@H]1CC[C@]2(O)C(=O)CO

>  <label-value>
inactive

$$$$

QUERY: # lookup: test call for CC1Cc2ccccc2N1NC(=O)c1ccc(Cl)c(S(N)(=O)=O)c1 (stereo not given)
RESULT: inactive

QUERY: # lookup: test call for `Cc1cc2c(s1)Nc1ccccc1N=C2N1CCN(C)CC1`
RESULT: inactive

====

# Tested on: CP252
# assay-explanation: qHTS profiling for inhibitors of Plasmodium falciparum proliferation (AID 504749); note: nearly all actives have a fitted effect of over 60% in size
# measurement-parameters: P. falciparum in erythrocytes, SYBR Green DNA, 72 h; series mostly up to 28.7 µM
Records with an inconclusive call do not appear. Active and inactive are the calls of the source. The call rests on the fitted dose curve; in most records, active means well fitted inhibition curve with a large enough effect; inconclusive means small, poorly fitted or top-dose-only effect; inactive means flat fitted curve, though single readings scatter.
measured-attribute: outcome

>  <compound>
O=C(O)c1cccc(-c2noc(-c3ccccc3F)n2)c1

>  <outcome>
inactive

$$$$
>  <compound>
Cc1nc2n(c(=O)c1CCN1CCC(c3noc4cc(F)ccc34)CC1)CCCC2

>  <outcome>
inactive

$$$$
>  <compound>
Cn1c(NCCN(CCO)CCCc2ccc([N+](=O)[O-])cc2)cc(=O)n(C)c1=O

>  <outcome>
inactive

$$$$
>  <compound>
CCOC(=O)c1c(C)n(C)c2ccc(O)cc12

>  <outcome>
inactive

$$$$
>  <compound>
CCCOc1ccc2nc(NC(=O)OC)[nH]c2c1

>  <outcome>
inactive

$$$$
>  <compound>
O=C(O)c1cc(=O)c2c(OCC(O)COc3cccc4oc(C(=O)O)cc(=O)c34)cccc2o1

>  <outcome>
inactive

$$$$
>  <compound>
CCCCCCCCCCCCCCCCCCCCCCO

>  <outcome>
inactive

$$$$
>  <compound>
Nc1ccn([C@@H]2O[C@H](CO)[C@@H](O)C2O)c(=O)n1 (stereo partly specified)

>  <outcome>
inactive

$$$$
>  <compound>
COc1cc(OC)c(C(=O)CCCN2CCCC2)c(OC)c1

>  <outcome>
inactive

$$$$
>  <compound>
CC(C)[C@H](N)C(=O)OCCOCn1cnc2c(=O)[nH]c(N)nc21

>  <outcome>
inactive

$$$$

Could you now consider this next compound?
QUERY: What is its outcome for CP252? Entry: Cc1ncc([N+](=O)[O-])n1CC(C)O (stereo unspecified)
RESULT: inactive
